Target: T1, natriuretic peptide receptor-B (human)
T1 chain: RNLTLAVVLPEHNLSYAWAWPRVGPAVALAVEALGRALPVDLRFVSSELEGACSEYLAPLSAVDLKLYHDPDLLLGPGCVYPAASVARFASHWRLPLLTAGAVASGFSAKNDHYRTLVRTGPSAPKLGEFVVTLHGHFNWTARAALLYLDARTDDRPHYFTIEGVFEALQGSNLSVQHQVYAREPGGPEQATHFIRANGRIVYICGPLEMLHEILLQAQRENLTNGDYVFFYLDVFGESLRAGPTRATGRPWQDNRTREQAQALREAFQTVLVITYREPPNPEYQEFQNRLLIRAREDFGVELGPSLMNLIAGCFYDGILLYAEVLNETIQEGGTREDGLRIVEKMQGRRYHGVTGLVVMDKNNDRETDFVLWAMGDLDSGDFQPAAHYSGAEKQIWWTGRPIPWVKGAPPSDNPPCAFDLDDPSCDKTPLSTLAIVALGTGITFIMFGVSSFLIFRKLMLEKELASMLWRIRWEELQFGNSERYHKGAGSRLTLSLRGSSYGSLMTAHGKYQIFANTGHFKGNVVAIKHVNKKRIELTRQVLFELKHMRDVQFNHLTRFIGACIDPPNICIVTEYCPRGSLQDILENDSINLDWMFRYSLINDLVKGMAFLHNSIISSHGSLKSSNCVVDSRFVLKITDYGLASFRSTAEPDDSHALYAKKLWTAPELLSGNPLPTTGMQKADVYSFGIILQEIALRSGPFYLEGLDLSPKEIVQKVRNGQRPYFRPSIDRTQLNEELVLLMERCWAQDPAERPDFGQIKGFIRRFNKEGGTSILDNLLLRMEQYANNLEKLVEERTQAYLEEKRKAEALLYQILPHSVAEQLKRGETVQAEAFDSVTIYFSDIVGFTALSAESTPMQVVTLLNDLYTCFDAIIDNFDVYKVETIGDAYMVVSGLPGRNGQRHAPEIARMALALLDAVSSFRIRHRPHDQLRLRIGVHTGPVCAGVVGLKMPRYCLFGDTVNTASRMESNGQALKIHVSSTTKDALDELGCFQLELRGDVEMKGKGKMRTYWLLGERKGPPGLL
Experiment: cell-based or functional assay
Numbered stars: 1 amine (or outer) side, 2 acyl side, 3 side chain; on linkers, the order of the positions; unused ones are H or OH. Square brackets hold non-standard residues; d marks the D form. Ends that are not written are not given here. * marks the point of attachment. Sni = (S)-nipecotic acid, O=C([C@H]1CCCN([*:1])C1)[*:2]; Hyp = O=C(O)[C@@H]1C[C@@H](O)CN1; 2Pal = N[C@@H](Cc1ccccn1)C(=O)O; NMeL = CN[C@@H](CC(C)C)C(=O)O; Phg = N[C@H](C(=O)O)c1ccccc1; Octanoyl = CCCCCCCC(=O)*; leu = not defined here; Occ = octanoic acid
Items are presented alongside their recorded EC50 group, cGMP in GTM-3 cells.
recordedMetric: EC50 group, cGMP in GTM-3 cells

>>> result("[Occ]AFGLPLNRI-NH2 (not fully specified (residue 2); printed as Occ-ala-Phe-Gly-Leu-Pro-Leu-Asn-Arg-Ile-NH2) [JAL-0924]")
"≤ 15 µM"
>>> result("[Occ][Sni]F[leu]L[Hyp][NMeL][Phg]RI-NH2 (reading uncertain; also: printed as Occ-Sni-Phe-leu-Leu-Hyp-Nml-Phg-Arg-Ile-NH2) [JAL-1858]")
"≤ 15 µM"
>>> result("Octanoyl-[Sni][2Pal]LL[Hyp][NMeL]DRI-NH2 (not fully specified (some residues); printed as Occ-Sni-Opa-leu-Leu-Hyp-Nml-Asp-Arg-Ile-) [JAL-1266]")
"≤ 5 µM"
>>> result("Octanoyl-[dP]F[dL]L[Hyp]LDRI-NH2 [JAL-1053]")
"≤ 1 µM"

Values from patent US9187525B2
